Values from patent US12686673B2

# TARGET SYSTEM: EGFR (A767_dupASV) expressing Ba/F3 stable cell line (Homo sapiens, UniProt P00533, DUP767-769, cells depend on it)
# Sequence (P00533 with tags, fused parts or gaps DUP767-769): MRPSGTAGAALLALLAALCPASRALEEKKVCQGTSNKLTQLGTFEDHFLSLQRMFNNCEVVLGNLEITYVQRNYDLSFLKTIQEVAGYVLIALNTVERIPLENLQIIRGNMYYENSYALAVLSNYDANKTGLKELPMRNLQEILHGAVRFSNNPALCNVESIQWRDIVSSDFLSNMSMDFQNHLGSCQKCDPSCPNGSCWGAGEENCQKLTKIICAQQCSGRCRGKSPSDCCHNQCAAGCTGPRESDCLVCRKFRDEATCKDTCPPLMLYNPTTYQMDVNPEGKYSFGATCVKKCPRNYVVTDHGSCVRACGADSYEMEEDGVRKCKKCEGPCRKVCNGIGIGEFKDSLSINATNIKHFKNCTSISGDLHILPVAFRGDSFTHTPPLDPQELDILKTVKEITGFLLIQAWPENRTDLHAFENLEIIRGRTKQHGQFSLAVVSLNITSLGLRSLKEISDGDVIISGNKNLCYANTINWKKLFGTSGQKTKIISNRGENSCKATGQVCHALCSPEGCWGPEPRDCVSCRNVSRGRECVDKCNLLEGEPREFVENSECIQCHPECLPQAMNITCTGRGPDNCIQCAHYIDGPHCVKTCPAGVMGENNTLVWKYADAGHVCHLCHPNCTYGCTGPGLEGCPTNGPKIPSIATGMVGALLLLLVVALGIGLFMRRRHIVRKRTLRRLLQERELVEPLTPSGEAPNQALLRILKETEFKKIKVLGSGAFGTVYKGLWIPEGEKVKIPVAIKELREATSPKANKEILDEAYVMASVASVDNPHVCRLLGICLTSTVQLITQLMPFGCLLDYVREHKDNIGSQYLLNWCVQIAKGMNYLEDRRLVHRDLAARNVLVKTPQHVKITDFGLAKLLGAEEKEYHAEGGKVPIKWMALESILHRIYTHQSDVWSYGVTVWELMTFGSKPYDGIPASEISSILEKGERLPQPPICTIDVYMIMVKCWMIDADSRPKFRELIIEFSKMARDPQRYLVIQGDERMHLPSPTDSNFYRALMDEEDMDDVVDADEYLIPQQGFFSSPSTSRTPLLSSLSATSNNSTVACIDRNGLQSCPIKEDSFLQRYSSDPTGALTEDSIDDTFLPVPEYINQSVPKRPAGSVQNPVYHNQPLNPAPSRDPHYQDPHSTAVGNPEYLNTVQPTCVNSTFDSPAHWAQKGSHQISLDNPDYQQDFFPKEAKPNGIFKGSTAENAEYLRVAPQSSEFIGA
# EXPERIMENT SUMMARY: Cellular proliferation (Alamar Blue) assay, EGFR A767_dupASV Ba/F3
# Format: cell-based
# COND: 72 hr, read-out: A767 IC50
Counter-ions that a name gives are not always drawn.
As shown below, each of these compounds has a reported log10 of GI50 value.
MEASUREMENT LABEL: log10 of GI50 (log10 of the value in nM)

{"columns": ["COMPOUND", "log10 of GI50"],
 "data": [
  ["C=CS(=O)(=O)Nc1ccc(F)c(Nc2nc(Nc3cnn(C)c3)ncc2-c2ccc(C(F)(F)F)cc2)c1", 3.94],
  ["C=CC(=O)Nc1cccc(-n2c3cc(C(F)(F)F)ccc3c3cnc(Nc4cnn(C)c4)nc32)c1", 3.99],
  ["CN(C)C/C=C/C(=O)Nc1ccc(-c2ccccc2)c(Nc2ccnc(Nc3cnn(C)c3)n2)c1", 3.90],
  ["CN(C)C/C=C/C(=O)Nc1ccc(F)c(Nc2nc(Nc3cnn(C)c3)ncc2Cl)c1", 3.25],
  ["C=CC(=O)Nc1cc(Nc2nc(Nc3cnn(C)c3)ncc2-c2ccc(C(F)(F)F)cc2)ccn1", 3.44],
  ["C=CC(=O)Nc1cccc(Oc2nc(Nc3cnn(C)c3)ncc2C2=CCN(C)CC2)c1", 3.96],
  ["C=CC(=O)Nc1ccc(F)c(Nc2nc(Nc3cnn(C)c3)ncc2-c2ccc(OC(F)F)nc2)c1", 1.56],
  ["C=CC(=O)Nc1ccc(F)c(Nc2nc(Nc3cnn(C)c3)ncc2C2=CCN(C)C2)c1", 3.21],
  ["C=CC(=O)Nc1ccc(F)c(Nc2nc(Nc3cnn(CCN(C)C)c3)ncc2-c2ccc(Br)cc2)c1", 2.00],
  ["C=CC(=O)Nc1ccc(F)c(Nc2nc(Nc3cnn(C)c3)ncc2-c2ccc(N3CCOCC3)cc2)c1", 2.04],
  ["C=CC(=O)Nc1cccc(Oc2nc(Nc3cnn(C)c3)ncc2-c2ccc(F)nc2)c1", 1.72],
  ["C=CC(=O)Nc1ccc(F)c(Nc2nc(Nc3cnn(C)c3)ncc2-c2ccnc(C)c2)c1", 2.88],
  ["C=CC(=O)Nc1ccc(F)c(Nc2nc(Nc3cnn(C)c3)ncc2-c2cccc(F)c2)c1", 1.68],
  ["C=CC(=O)Nc1cccc(Nc2nc(Nc3cnn(C)c3)ncc2NCc2ccccc2)c1", 2.95],
  ["C=CC(=O)Nc1cccc(Nc2nc(Nc3cnn(C)c3)ncc2C(C)N(Cc2ccccc2)C(C)=O)c1 (stereo not drawn)", 3.85],
  ["C=CC(=O)Nc1ccc(F)c(Nc2nc(Nc3cn(CCO)nc3Cl)ncc2-c2ccc(C(F)(F)F)cc2)c1", 2.16],
  ["C=CC(=O)Nc1cccc(Oc2nc(Nc3cnn(C)c3)ncc2-c2ccc(C(F)(F)F)cc2)c1", 2.11],
  ["[2H]C([2H])=CC(=O)Nc1ccc(F)c(Nc2nc(Nc3cnn(C([2H])([2H])[2H])c3)ncc2-c2ccc(C(F)(F)F)cc2)c1", 2.16],
  ["C=CC(=O)Nc1ccc(F)c(Nc2nc(Nc3ccn(C)n3)ncc2-c2ccc(C(F)(F)F)cc2)c1 [Compound 113, trifluoroacetate]", 2.42],
  ["C=CC(=O)Nc1ccc(F)c(Nc2nc(Nc3cnn(C)c3)ncc2-c2ccc(C#N)cc2)c1", 2.49],
  ["C=CC(=O)Nc1cccc(Oc2nc(Nc3cnn(C)c3)ncc2C2=CCOCC2)c1", 2.38],
  ["C=CC(=O)Nc1cccc(Oc2nc(Nc3ccc(CN(C)C)cc3)ncc2-c2ccc(C(F)(F)F)cc2)c1", 2.98],
  ["C=CC(=O)Nc1ccc(F)c(Nc2nc(Nc3cnn(C)c3)ncc2-c2cncs2)c1", 1.80],
  ["C=CC(=O)Nc1ccc(F)c(Nc2nc(Nc3cnn(C)c3)ncc2-c2ccc3ncnn3c2)c1", 2.52]
]}

###

# TARGET SYSTEM: EGFR(D770_N771insSVD) expressing Ba/F3 stable cell line (Homo sapiens, UniProt P00533, DUP768-770, cells depend on it)
# Sequence (P00533 with tags, fused parts or gaps DUP768-770): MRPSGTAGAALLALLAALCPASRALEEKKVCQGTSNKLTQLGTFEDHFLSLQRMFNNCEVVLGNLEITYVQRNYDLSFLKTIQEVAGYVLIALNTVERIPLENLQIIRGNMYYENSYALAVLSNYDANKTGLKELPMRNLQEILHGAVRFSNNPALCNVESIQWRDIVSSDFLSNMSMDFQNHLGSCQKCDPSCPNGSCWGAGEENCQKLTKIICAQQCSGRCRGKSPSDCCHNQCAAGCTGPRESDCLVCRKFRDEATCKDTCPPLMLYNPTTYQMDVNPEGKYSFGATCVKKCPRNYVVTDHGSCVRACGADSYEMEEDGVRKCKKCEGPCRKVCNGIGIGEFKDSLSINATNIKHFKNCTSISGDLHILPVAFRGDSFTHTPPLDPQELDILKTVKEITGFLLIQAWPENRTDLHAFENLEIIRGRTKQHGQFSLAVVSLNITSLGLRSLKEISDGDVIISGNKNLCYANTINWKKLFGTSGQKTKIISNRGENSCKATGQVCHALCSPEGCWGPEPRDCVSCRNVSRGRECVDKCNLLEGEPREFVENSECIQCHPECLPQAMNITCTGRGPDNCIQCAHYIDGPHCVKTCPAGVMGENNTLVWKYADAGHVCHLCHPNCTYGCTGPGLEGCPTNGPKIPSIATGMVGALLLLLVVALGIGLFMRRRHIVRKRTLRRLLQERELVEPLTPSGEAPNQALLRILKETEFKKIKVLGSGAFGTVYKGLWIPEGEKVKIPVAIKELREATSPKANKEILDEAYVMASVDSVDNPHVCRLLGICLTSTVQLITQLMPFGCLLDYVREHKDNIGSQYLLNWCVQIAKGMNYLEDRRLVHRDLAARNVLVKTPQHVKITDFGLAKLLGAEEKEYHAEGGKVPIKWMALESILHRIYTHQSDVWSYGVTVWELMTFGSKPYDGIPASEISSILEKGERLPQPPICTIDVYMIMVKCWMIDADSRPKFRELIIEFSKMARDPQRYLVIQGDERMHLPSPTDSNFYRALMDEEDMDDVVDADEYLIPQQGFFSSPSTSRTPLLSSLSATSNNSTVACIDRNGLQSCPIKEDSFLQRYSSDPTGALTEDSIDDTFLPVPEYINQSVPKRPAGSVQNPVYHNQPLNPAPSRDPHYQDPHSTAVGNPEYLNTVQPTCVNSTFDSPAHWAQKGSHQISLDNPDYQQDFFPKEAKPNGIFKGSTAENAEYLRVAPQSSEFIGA
# EXPERIMENT SUMMARY: Cellular proliferation (Alamar Blue) assay, EGFR D770_N771insSVD Ba/F3
# Assay type: cell-based
# COND: 72 hr, read-out: D770 IC50
Where a name gives a salt, the structure may show the parent alone.
MEASUREMENT LABEL: GI50 (nM)

{"columns": ["COMPOUND", "VALUE UNIT", "OPERATOR SYMBOL", "NUMERIC VALUE"],
 "data": [
  ["C=CC(=O)Nc1ccc(F)c(Nc2nc(Nc3cccc(CN(C)C)c3)ncc2-c2ccc(C(F)(F)F)cc2)c1", "nM", "=", 1690],
  ["C=CC(=O)Nc1cccc(Oc2nc(Nc3cnn(C)c3)ncc2-c2cncc(F)c2)c1", "nM", "=", 37],
  ["C=CC(=O)Nc1ccc(N(C)C)c(Nc2nc(Nc3cnn(C)c3)ncc2-c2ccc(C(F)(F)F)cc2)c1 [Compound 119, trifluoroacetate]", "nM", ">", 10000]
]}

###

# TARGET SYSTEM: EGFR (A767_dupASV) expressing Ba/F3 stable cell line (Homo sapiens, UniProt P00533, DUP767-769, cells depend on it)
# EXPERIMENT SUMMARY: Cellular proliferation (Alamar Blue) assay, EGFR A767_dupASV Ba/F3
# Format: cell-based
# COND: 72 hr, read-out: A767 IC50
Assign labels as follows, please: YES for GI50 below 300 nM; NO for GI50 equal to or exceeding 300 nM.

{"columns": ["COMPOUND", "ASSIGNED LABEL"],
 "data": [
  ["C=CC(=O)Nc1ccc(F)c(Nc2nc(Nc3cn(C)cn3)ncc2-c2ccc(C(F)(F)F)cc2)c1", "NO"],
  ["C=CC(=O)Nc1ccc(F)c(Nc2nc(Nc3cnn(C)c3)ncc2-c2ccc(C(F)(F)F)cc2)c1 [Compound 243]", "YES"],
  ["C=CC(=O)Nc1cccc(Nc2nc(Nc3cnn(C)c3)ncc2NS(=O)(=O)c2ccccc2)c1", "NO"],
  ["C=CC(=O)Nc1cccc(Oc2nc(Nc3ccc(N4CCN(C)CC4)cc3OC)ncc2-c2ccc(C(F)(F)F)cc2)c1", "NO"],
  ["C=CC(=O)Nc1ccc(F)c(Nc2nc(Nc3cnn(C)c3)ncc2-c2ccc(C(=O)NC)cc2)c1", "NO"],
  ["C=CC(=O)Nc1ccc(F)c(Nc2nc(Nc3cn(C)nc3Cl)ncc2-c2ccc(C(F)(F)F)cc2)c1 [Compound 245]", "YES"]
]}

###

# Test system: A431 cells
# EXPERIMENT SUMMARY: Cellular proliferation (Alamar Blue) assay, A431
# Format: cell-based
# COND: A431 cells, 72 hr, Alamar Blue; read-out: A431 IC50
pIC50: −log10 of the molar value.

{"columns": ["COMPOUND", "pIC50"],
 "data": [
  ["C=CC(=O)Nc1ccc(F)c(Nc2nc(Nc3cnn(C)c3)ncc2-c2ccc(C(F)(F)F)cc2)c1 [Compound 243]", 5.58]
]}

###

# TARGET SYSTEM: EGFR(D770_N771insSVD) expressing Ba/F3 stable cell line (Homo sapiens, UniProt P00533, DUP768-770, cells depend on it)
# EXPERIMENT SUMMARY: Cellular proliferation (Alamar Blue) assay, EGFR D770_N771insSVD Ba/F3
# Assay type: cell-based
# COND: 72 hr, read-out: D770 IC50
Where a name gives a salt, the structure may show the parent alone.

{"columns": ["COMPOUND", "GI50"],
 "data": [
  ["C=CC(=O)Nc1ccc(OC)c(Nc2nc(Nc3cnn(C)c3)ncc2Cl)c1", "> 10 µM"],
  ["CN(C)C/C=C/C(=O)Nc1ccc(F)c(Nc2nc(Nc3cnn(CCO)c3)ncc2Cl)c1", "9.06 µM"],
  ["C=CC(=O)Nc1ccc(F)c(Nc2nc(Nc3nccs3)ncc2-c2ccc(C(F)(F)F)cc2)c1", "0.991 µM"],
  ["C=CC(=O)Nc1ccc(F)c(Nc2nc(Nc3csc(Cl)c3)ncc2-c2ccc(C(F)(F)F)cc2)c1 [Compound 41, trifluoroacetate]", "1.66 µM"],
  ["CN(C)C/C=C/C(=O)Nc1cccc(F)c1CNc1nc(Nc2cnn(C)c2)ncc1Cl", "> 10 µM"],
  ["C=CC(=O)Nc1ccc(F)c(Nc2nc(Nc3cnn(C)c3)ncc2-c2ccc(N3CCOCC3)cc2)c1", "0.542 µM"],
  ["C=CC(=O)Nc1ccc(F)c(Nc2nc(Nc3ccn(C)n3)ncc2-c2ccc(C(F)(F)F)cc2)c1 [Compound 113, trifluoroacetate]", "0.317 µM"]
]}

###

GI50 for assorted molecules
# TARGET SYSTEM: EGFR (A767_dupASV) expressing Ba/F3 stable cell line (Homo sapiens, UniProt P00533, DUP767-769, cells depend on it)
# EXPERIMENT SUMMARY: Cellular proliferation (Alamar Blue) assay, EGFR A767_dupASV Ba/F3
# Assay type: cell-based
# COND: 72 hr, read-out: A767 IC50
Structures can show the parent of a compound that is named as a salt.

{"columns": ["MOLECULE", "OPERATOR SYMBOL", "GI50, nM"],
 "data": [
  ["C=CC(=O)Nc1ccc(F)c(Nc2nc(Nc3cnn(C)c3)ncc2-c2ccc(CC(F)(F)F)cc2)c1 [Compound 130, trifluoroacetate]", "=", 27],
  ["C=CC(=O)Nc1cccc2c1ccn2-c1nc(Nc2cnn(C)c2)ncc1-c1ccc(C(F)(F)F)cc1 [Compound 81]", ">", 10000],
  ["C=CC(=O)Nc1cccc(Nc2nc(Nc3cnn(C)c3)ncc2CN(C(C)=O)C(C)c2ccccc2)c1 (stereo not drawn) [Compound 19]", ">", 10000],
  ["C=CC(=O)Nc1ccc(C#Cc2ccccc2)c(Nc2nc(Nc3cnn(C)c3)ncc2Cl)c1 [Compound 178]", ">", 10000],
  ["C=CC(=O)Nc1cccc(Nc2nc(Nc3cnn(C)c3)ncc2-c2ccc(C(F)(F)F)cc2)c1 [Compound 111]", "=", 41],
  ["C=CC(=O)Nc1cccc(Nc2nc(Nc3cnn(C)c3)ncc2C(=O)NC(C)c2ccccc2)c1 (stereo not drawn) [Compound 34]", "=", 9310],
  ["C=CC(=O)Nc1ccc(F)c(Nc2nc(Nc3cnn(C)c3)ncc2-c2ccc(OC)nc2)c1 [Compound 86]", "=", 39],
  ["C=CC(=O)Nc1cccc(Oc2nc(Nc3cnn(C)c3)ncc2-c2ccc(Cl)nc2)c1 [Compound 185]", "=", 37],
  ["C=CC(=O)Nc1cccc(Oc2nc(Nc3ccccc3OC)ncc2-c2ccc(C(F)(F)F)cc2)c1 [Compound 193]", ">", 10000],
  ["C=CC(=O)Nc1ccc(-c2ccccc2)c(Nc2ccnc(Nc3cnn(C)c3)n2)c1 [Compound 175]", ">", 10000],
  ["C=CC(=O)Nc1ccc(F)c(Nc2nc(Nc3cnn(C)c3)ncc2-c2cncc(Cl)c2)c1 [Compound 102]", "=", 31],
  ["C=CC(=O)Nc1ccc(F)c(Nc2nc(Nc3cn(C)nc3C(F)(F)F)ncc2-c2ccc(C(F)(F)F)cc2)c1 [Compound 146, trifluoroacetate]", "=", 279],
  ["C=C(F)C(=O)N1CCCC(Nc2nc(Nc3cnn(C)c3)ncc2Cl)C1 (stereo not drawn) [Compound 25]", ">", 10000],
  ["C=CC(=O)Nc1ccc(F)c(Nc2nc(Nc3ccccc3OC)ncc2-c2ccc(C(F)(F)F)cc2)c1 [Compound 39, trifluoroacetate]", "=", 8290],
  ["C=C(C)C(=O)Nc1ccc(F)c(Nc2nc(Nc3cnn(C)c3)ncc2Cl)c1 [Compound 12]", ">", 10000],
  ["C=CC(=O)Nc1ccc(F)c(Nc2nc(Nc3cnn(C4CCN(C)CC4)c3)ncc2Cl)c1 [Compound 14]", "=", 170],
  ["[2H]C([2H])=CC(=O)Nc1ccc(F)c(Nc2nc(Nc3cnn(C)c3)ncc2-c2ccc(Br)cc2)c1 [Compound 250]", "=", 47],
  ["C=CC(=O)Nc1ccc(F)c(Nc2nc(Nc3cnn(C)c3)ncc2-c2ccc(F)nc2)c1 [Compound 100]", "=", 72],
  ["C=CC(=O)Nc1ccc(F)c(Nc2nc(Nc3cnn(CCO)c3)ncc2-c2ccc(C(F)(F)F)cc2)c1 [Compound 78]", "=", 93],
  ["C=CC(=O)Nc1ccc(F)c(Nc2nc(Nc3cnoc3)ncc2-c2ccc(C(F)(F)F)cc2)c1 [Compound 225]", "=", 2690],
  ["C=CC(=O)Nc1ccc(F)c(Nc2nc(Nc3cnn(CCN(C)C)c3)ncc2-c2ccc(C(F)(F)F)cc2)c1 [Compound 72, trifluoroacetate]", "=", 108],
  ["C=CC(=O)Nc1ccc(F)c(Nc2nc(Nc3cnn(C)c3)ncc2-c2ccc(N3CCOCC3)nc2)c1 [Compound 55]", "=", 492],
  ["C=CC(=O)Nc1ccc(F)c(Nc2nc(Nc3cnn(C)c3)ncc2-c2ccccc2)c1 [Compound 93]", "=", 315],
  ["C=CC(=O)Nc1ccc(-c2ccccc2)c(Nc2nc(Nc3cnn(C)c3)ncc2Cl)c1 [Compound 177]", ">", 10000],
  ["C=CC(=O)Nc1cccc(Nc2nc(Nc3cnn(C)c3)ncc2-c2ccc(F)nc2)c1 [Compound 74]", "=", 38],
  ["C=CC(=O)Nc1ccc(F)c(Nc2nc(Nc3cn(C)nc3F)ncc2-c2ccc(C(F)(F)F)cc2)c1 [Compound 87]", "=", 239],
  ["C=CC(=O)Nc1ccc(F)c(Nc2nc(Nc3ccc(=O)[nH]c3)ncc2Cl)c1 [Compound 2]", ">", 10000],
  ["CN(C)C/C=C/C(=O)Nc1ccc(F)c(Nc2nc(Nc3cnn(CCO)c3)ncc2Cl)c1 [Compound 16]", "=", 8840],
  ["C=CC(=O)Nc1ccc(F)c(Nc2nc(Nc3csc(C)c3)ncc2-c2ccc(C(F)(F)F)cc2)c1 [Compound 217]", "=", 1130],
  ["C=CC(=O)Nc1ccc(F)c(Nc2nc(Nc3cnn(C)c3)ncc2-c2ccc(N(C)C)cc2)c1 [Compound 103]", "=", 287]
]}
